Target: Sushi domains (SD1/2) protein
Test: Fluorescence polarization (FP) competition assay with AJAP-1probe, calculated Ki
Type: binding
Conditions: Table 1, affinity maturation; mean ± SEM, n ≥ 3; read-out: Ki
pKi: −log10 of the molar value. Residues, ends and D or L forms follow the SMILES beside them.

>  <compound>
CC[C@H](C)[C@H](NC(=O)[C@H](Cc1ccc(OCc2ccccc2)cc1)NC(=O)[C@H](CC(=O)O)NC(=O)[C@H](CC(=O)O)NC(=O)[C@H](CC(=O)O)NC(=O)[C@H](CCC(=O)O)NC(C)=O)C(=O)N[C@@H](CC(=O)O)C(=O)N[C@@H](Cc1c[nH]c2ccccc12)C(=O)N[C@@H](Cc1ccc(O)cc1)C(=O)N[C@@H](CC(=O)O)C(=O)N[C@@H](CO)C(=O)N[C@@H](CC(=O)O)C(=O)N[C@@H](CC(=O)O)C(=O)N[C@@H](CC(=O)O)C(N)=O [Peptide 33]

>  <pKi>
8.03

$$$$
>  <compound>
CC[C@H](C)[C@H](NC(=O)[C@H](Cc1c[nH]c2ccccc12)NC(=O)[C@H](CC(=O)O)NC(=O)[C@H](CC(=O)O)NC(=O)[C@H](CC(=O)O)NC(=O)[C@H](CCC(=O)O)NC(C)=O)C(=O)N[C@@H](CC(=O)O)C(=O)N[C@@H](Cc1c[nH]c2ccccc12)C(=O)NCC(=O)N1CCC[C@H]1C(=O)N[C@H](C(=O)N[C@@H](CO)C(=O)N[C@@H](CC(=O)O)C(=O)N[C@@H](CC(=O)O)C(=O)N[C@@H](CC(=O)O)C(N)=O)[C@@H](C)O [Peptide 17] (Ac-EDDDWIDWGPTSDDD-NH2)

>  <pKi>
8.40

$$$$
>  <compound>
CCOc1ccc(C[C@H](NC(=O)[C@H](CC(=O)O)NC(=O)[C@H](CC(=O)O)NC(=O)[C@H](CC(=O)O)NC(=O)[C@H](CCC(=O)O)NC(C)=O)C(=O)N[C@H](C(=O)N[C@@H](CC(=O)O)C(=O)N[C@@H](Cc2c[nH]c3ccccc23)C(=O)NCC(=O)N2CCC[C@H]2C(=O)N[C@H](C(=O)N[C@@H](CO)C(=O)N[C@@H](CC(=O)O)C(=O)N[C@@H](CC(=O)O)C(=O)N[C@@H](CC(=O)O)C(N)=O)[C@@H](C)O)[C@@H](C)CC)cc1 [Peptide 34] (Ac-EDDDY(Et)IDWGPTSDDD-NH2)

>  <pKi>
8.19

$$$$
>  <compound>
CC[C@H](C)[C@H](NC(=O)[C@H](Cc1c[nH]c2ccccc12)NC(=O)[C@H](CC(=O)O)NC(=O)[C@H](CC(=O)O)NC(=O)[C@H](CC(=O)O)NC(=O)[C@H](CCC(=O)O)NC(C)=O)C(=O)N[C@@H](CC(=O)O)C(=O)N[C@@H](Cc1c[nH]c2ccccc12)C(=O)N[C@@H](Cc1ccc(O)cc1)C(=O)N[C@@H](CC(=O)O)C(=O)N[C@@H](CO)C(=O)N[C@@H](CC(=O)O)C(=O)N[C@@H](CC(=O)O)C(=O)N[C@@H](CC(=O)O)C(N)=O [Peptide 16] (Ac-EDDDWIDWYDSDDD-NH2)

>  <pKi>
8.49

$$$$
>  <compound>
CC[C@H](C)[C@H](NC(=O)[C@H](Cc1ccccc1)NC(=O)[C@H](CCC(=O)O)NC(=O)[C@@H](NC(=O)[C@H](CCC(=O)O)NC(C)=O)[C@@H](C)O)C(=O)N[C@@H](C)C(=O)N[C@@H](Cc1c[nH]c2ccccc12)C(=O)NCC(=O)NCC(=O)N[C@@H](C)C(=O)N[C@@H](CC(=O)O)C(=O)N[C@H](C(=O)N[C@@H](CC(=O)O)C(N)=O)[C@@H](C)O [Peptide Y] (Ac-ETEFIAWGGADTD-NH2)

>  <pKi>
6.45

$$$$
>  <compound>
CC(=O)N[C@@H](CCC(=O)O)C(=O)N[C@@H](CC(=O)O)C(=O)N[C@@H](CC(=O)O)C(=O)N[C@@H](CO)C(=O)N[C@@H](CC(=O)O)C(=O)N[C@H](C(=O)N[C@@H](Cc1c[nH]c2ccccc12)C(=O)N[C@@H](Cc1c[nH]c2ccccc12)C(=O)NCC(=O)NCC(=O)N[C@@H](C)C(=O)N[C@@H](CC(=O)O)C(=O)N[C@H](C(=O)N[C@@H](CC(=O)O)C(N)=O)[C@@H](C)O)C(C)C [APPWT] (Ac-EDDSDVWWGGADTD-NH2)

>  <pKi>
6.25

$$$$
>  <compound>
CCOc1ccc(C[C@H](NC(=O)[C@H](CC(=O)O)NC(=O)[C@H](CC(=O)O)NC(=O)[C@H](CC(=O)O)NC(=O)[C@H](CCC(=O)O)NC(C)=O)C(=O)N[C@H](C(=O)N[C@@H](CC(=O)O)C(=O)N[C@@H](Cc2c[nH]c3ccccc23)C(=O)N[C@@H](Cc2ccc(O)cc2)C(=O)N[C@@H](CC(=O)O)C(=O)N[C@@H](CO)C(=O)N[C@@H](CC(=O)O)C(=O)N[C@@H](CC(=O)O)C(=O)N[C@@H](CC(=O)O)C(N)=O)[C@@H](C)CC)cc1 [Peptide 32]

>  <pKi>
8.28

$$$$
>  <compound>
CC[C@H](C)[C@H](NC(=O)[C@H](Cc1ccc(O)cc1)NC(=O)[C@H](CC(=O)O)NC(=O)[C@H](CC(=O)O)NC(=O)[C@H](CCC(=O)O)NC(C)=O)C(=O)N[C@@H](CC(=O)O)C(=O)N[C@@H](Cc1c[nH]c2ccccc12)C(=O)N[C@@H](Cc1ccc(O)cc1)C(=O)N[C@@H](CC(=O)O)C(=O)N[C@@H](CO)C(=O)N[C@@H](CC(=O)O)C(=O)N[C@@H](CC(=O)O)C(=O)N[C@@H](CC(=O)O)C(N)=O [Peptide 18] (Ac-EDDYIDWYDSDDD-NH2)

>  <pKi>
8.34

$$$$
>  <compound>
CC[C@H](C)[C@H](NC(=O)[C@H](Cc1c[nH]c2ccccc12)NC(=O)[C@H](CO)NC(=O)[C@H](CC(=O)O)NC(=O)[C@H](CC(=O)O)NC(=O)[C@H](CCC(=O)O)NC(C)=O)C(=O)N[C@@H](CC(=O)O)C(=O)N[C@@H](Cc1c[nH]c2ccccc12)C(=O)NCC(=O)N1CCC[C@H]1C(=O)N[C@H](C(=O)NCC(=O)N[C@@H](CC(=O)O)C(=O)N[C@@H](CCC(=O)O)C(=O)N[C@@H](CC(=O)O)C(N)=O)[C@@H](C)O [Peptide 29, Ac-EDDSWIDWGPTGDED-NH2] (Ac-EDDSWIDWGPTGDED-NH2)

>  <pKi>
8.25

$$$$
>  <compound>
CC[C@H](C)[C@H](NC(=O)[C@H](Cc1ccccc1)NC(=O)[C@H](CCC(=O)O)NC(=O)[C@@H](NC(=O)[C@H](CCC(=O)O)NC(C)=O)[C@@H](C)O)C(=O)N[C@@H](C)C(=O)N[C@@H](Cc1c[nH]c2ccccc12)C(=O)N[C@@H](Cc1ccc(O)cc1)C(=O)NCC(=O)N[C@@H](C)C(=O)N[C@@H](CC(=O)O)C(=O)N[C@H](C(=O)N[C@@H](CC(=O)O)C(N)=O)[C@@H](C)O [Peptide 37] (Ac-ETEFIAWYGADTD-NH2)

>  <pKi>
7.02

$$$$
